tested on: SNB-75 CNS; assay: NCI-60 one-dose screen, 48 h; details: 10 µM unless noted
Compounds without any hit were thinned out: in the full panel of roughly 83,000, 20% have a hit. Activity calls are given as the source filed them. How the source made its calls: active means growth percent below 10; inactive means the rest.
Classes used: yes = active, no = inactive

# molecule, assigned-category
records = [
    ("O=C(Nc1nc2ccc([N+](=O)[O-])cc2s1)Nc1ccccc1F", "no"),
    ("O=C(N/N=C/c1ccc(-c2cccc([N+](=O)[O-])c2)s1)c1[nH]c2ccc(Br)cc2c1-c1ccccc1", "no"),
    ("CC(C)(C)C(=O)c1c2c(c3ccc4c5ccccc5ccc4n13)C(=O)c1ccccc1C2=O", "no"),
    ("CC(C)C[C@H](NC(=O)CNC(=O)C[C@H]1O[C@@H]2OC3(C)CC[C@H]4[C@H](C)CC[C@@H]([C@H]1C)[C@@]24O3)B(O)O", "yes"),
    ("O=C(NNC(=S)NCCc1ccccc1)c1ccc(OCc2nc3ccc(Cl)cc3[nH]2)cc1", "no"),
    ("CC1CCc2c(sc3nc(SCC(=O)c4cccc([N+](=O)[O-])c4)n(-c4ccccc4)c(=O)c23)C1 (stereo unspecified)", "no"),
    ("COc1cc(-c2ccc3ncnc(N4CCc5ccc(Cl)cc54)c3c2)cnc1Cl", "yes"),
    ("N#CC1=C(c2cccs2)Nc2c(c(-c3ccccc3)nn2-c2ccccc2)C12C(=O)Nc1ccc(Br)cc12 (stereo unspecified)", "yes"),
    ("O=C(CSc1nnc(-c2ccc(-c3nc4ccc(Cl)cc4[nH]3)cc2)o1)Nc1ccc(Cl)cc1", "yes"),
    ("O=C(Nc1ccc(F)cc1)Nc1nc2ccc([N+](=O)[O-])cc2s1", "yes"),
    ("O=C(NC(=S)N1CCN(c2ncnc3c2cnn3-c2ccccc2)CC1)c1ccc(F)cc1", "no"),
]

---

tested on: SK-MEL-28 melanoma; assay: NCI-60 one-dose screen, 48 h (100 = growth as untreated, 0 = no growth, -100 = all killed); details: 10 µM unless noted
This is part of a sample that, as a whole, favours compounds with a hit. Of some 83,000 tested, about 20% had one in any assay.
Output schema: class label derived from growth. Mapping: class A (below 40%), class B (40% to below 80%), class C (80% or more)

# molecule, assigned-category
records = [
    ("CCC1(OC(=O)c2ccccc2SSCCOC(=O)CCCCC2SCC3NC(=O)NC32)C(=O)OCc2c1cc1n(c2=O)Cc2cc3ccccc3nc2-1 (stereo not drawn)", "class C"),
    ("Cc1[nH]nc2ccc3nc(-c4cnn(CCO)c4)c4c(c3c12)CCCC4", "class B"),
    ("O=C(N/N=C/c1c[nH]c2ccccc12)Nc1ccc(F)c(Cl)c1", "class B"),
    ("Cn1cc(-c2cc(N)n3nc(-c4c[nH]c5ccc(Cl)cc45)cc3n2)c2cc(Br)cnc21", "class A"),
    ("CC1=C(C(=O)OCc2ccccc2)C(c2cccc3ccccc23)n2c(nc3ccccc32)N1 (stereo not drawn)", "class B"),
    ("CCN1C(=O)N(CC)C2NNC(Sc3c(C(=O)O)c4ccccc4n(CC(C)C)c3=O)=NC21 (stereo not drawn)", "class B"),
    ("O=C(NNC(=O)c1ccc(OCc2nc3ccc(Cl)cc3[nH]2)cc1)Nc1ccc(Cl)c(Cl)c1", "class A"),
    ("C=CCSc1nnc(-c2ccc(-c3nc4ccccc4[nH]3)cc2)o1", "class C"),
    ("COc1ccc2[nH]c(O)c(N=Nc3nc(-c4ccc(Br)cc4)cs3)c2c1", "class A"),
    ("COc1ccc(NC(=O)NN2C(=O)c3ccccc3N(C)C2c2ccc(OC)cc2)cc1 (stereo not drawn)", "class C"),
    ("CCCCC[C@@H]1C/C=C(\\C)[C@@H](O)C(C)(C)C(=O)[C@@H](C)/C=C(\\C)[C@@H]2C[C@H](O)C[C@](O)(CC(=O)O1)O2", "class B"),
    ("OC(c1ccccc1)(c1ccccc1)C1CCN(c2ccc3nnc(Cl)n3n2)CC1", "class B"),
    ("N#Cc1c(NC(=O)N2CCOCC2)n(-c2ccc(OC(F)(F)F)cc2)c2cc(F)ccc12", "class C"),
    ("CCCCNc1ccc2c3c(cccc13)C(=O)N(c1cccc(-c3nn(-c4ccccc4)cc3-c3nc4ccccc4s3)c1)C2=O", "class C"),
    ("Cc1ccc2nc(SCc3ccccc3F)n(-c3ccccc3)c(=O)c2c1", "class C"),
    ("O=C(N/N=C/c1ccoc1)c1[nH]c2ccc(Br)cc2c1-c1ccccc1", "class A"),
    ("Cc1nn(-c2ccccc2)c2nc(C)n(CC(=O)N/N=C/c3ccccc3O)c(=O)c12", "class A"),
    ("O=C(CSc1nnc(-c2ccc(-c3nc4ccc(Cl)cc4[nH]3)cc2)o1)Nc1ccc(Cl)cc1", "class A"),
    ("O=C(CSc1nnc(-c2ccc(-c3nc4ccccc4[nH]3)cc2)o1)Nc1ccccc1", "class A"),
    ("N/C(=N\\c1nc2ccc([N+](=O)[O-])cc2s1)NC(=O)Nc1ccccc1Cl", "class B"),
    ("N#Cc1c(-c2ccc(F)cc2)nc(SCc2ccc(F)cc2)nc1N1CCNCC1", "class A"),
    ("Clc1ccc(Nc2nnc(-c3c[nH]c4ccccc34)o2)cc1", "class C"),
]

---

tested on: SW-620 colon; experiment: NCI-60 one-dose screen, 48 h (100 = growth as untreated, 0 = no growth, -100 = all killed); conditions: 10 µM unless noted
About 83,000 compounds went through this panel and 20% of them were active in at least one assay; those are over-represented in the sample as a whole.
outcome-measure: growth (%)

# molecule, system-under-test, outcome-measure, meas-value
records = [
    ("O=[N+]([O-])c1cccc(-c2nnc3c(/C=C/c4ccc(F)cc4)nc4ccccc4n23)c1", "SW-620 colon", "growth", 96.1),
    ("O=C(CSc1nnc(-c2ccc(-c3nc4ccccc4[nH]3)cc2)o1)Nc1ccc(Cl)cc1", "SW-620 colon", "growth", -50.5),
    ("O=C(c1cc2cc(OCCCN3CCC3)ccc2[nH]1)N1C[C@@H](CCl)c2c1cc(OCc1ccccc1)c1ccccc21", "SW-620 colon", "growth", 0.696),
    ("COc1ccc(-c2cc(C(=O)OCc3ccc(Br)cc3)nn2-c2ccc(S(C)(=O)=O)cc2)cc1OC", "SW-620 colon", "growth", 99.2),
    ("O=C1/C(=C/c2cnc(-c3ccccc3)s2)SC(=S)N1Cc1ccc2c(c1)OCO2", "SW-620 colon", "growth", 102),
    ("CCOc1ccc2[nH]c(=O)c(C(c3nnnn3CC3CCCO3)N3CCN(Cc4ccccc4)CC3)cc2c1 (stereo unspecified)", "SW-620 colon", "growth", 98.8),
]

---

system: SK-MEL-5 melanoma; assay: NCI-60 one-dose screen, 48 h (100 = growth as untreated, 0 = no growth, -100 = all killed); details: 10 µM unless noted
Compounds without any hit were thinned out: in the full panel of roughly 83,000, 20% have a hit.
Output schema: class label derived from growth. Mapping: lower bin: < 20%; middle bin: ≥ 20% and < 90%; upper bin: ≥ 90%

# molecule, system-under-test, assigned-category
measured = [
    ("COc1cc(/C=N/NC(=O)c2ccc(OCc3nc4ccc(Cl)cc4[nH]3)cc2)cc(OC)c1OC", "SK-MEL-5 melanoma", "lower bin"),
    ("CC(C)(C)OC(=O)N1CCC2(CC1)Oc1ccccc1[C@H]1CC(c3ccc(Br)cc3)=NN12", "SK-MEL-5 melanoma", "middle bin"),
    ("COc1ccc(-c2nc3ccccc3n2CC(=O)N=Nc2c(O)[nH]c3ccc(OC)cc23)cc1", "SK-MEL-5 melanoma", "middle bin"),
    ("CCC(=O)c1c2c(c3ccc4c5ccccc5ccc4n13)C(=O)c1ccccc1C2=O", "SK-MEL-5 melanoma", "lower bin"),
    ("O=C(N/N=C/c1ccsc1)c1[nH]c2ccc(Br)cc2c1-c1ccccc1", "SK-MEL-5 melanoma", "lower bin"),
    ("N#CC1=C(c2cccs2)Nc2c(c(-c3ccccc3)nn2-c2ccccc2)C12C(=O)Nc1ccccc12 (configuration not stated)", "SK-MEL-5 melanoma", "middle bin"),
    ("O=c1[nH]c2ccccc2cc1COc1ccc(Nc2nccc(-c3ccc(Cl)cc3)n2)cc1", "SK-MEL-5 melanoma", "upper bin"),
    ("Cc1ccc2c(c1)/C(=C/C(=O)c1cc3ccccc3oc1=O)C(=O)N2", "SK-MEL-5 melanoma", "upper bin"),
    ("O=c1[nH]c2ccccc2cc1CSc1ccccc1Nc1nccc(-c2ccc3c(c2)OCO3)n1", "SK-MEL-5 melanoma", "middle bin"),
    ("COc1nc(N)ncc1-c1ccc2ncnc(N3CCc4cc(F)c(Cl)cc43)c2c1", "SK-MEL-5 melanoma", "middle bin"),
    ("COc1cc(-c2ccc3ncnc(N4CCc5ccc(Cl)cc54)c3c2)cnc1Cl", "SK-MEL-5 melanoma", "lower bin"),
    ("O=C(NNC(=O)c1ccc(OCc2nc3ccc(Cl)cc3[nH]2)cc1)Nc1ccc(Cl)c(C(F)(F)F)c1", "SK-MEL-5 melanoma", "middle bin"),
    ("COc1cccc2nc(Nc3cccc(NC(=O)c4ccc(CN5CCN(C)CC5)c(C(F)(F)F)c4)c3)ccc12", "SK-MEL-5 melanoma", "lower bin"),
    ("COc1ccc(-c2cc(C(=O)N=Nc3c(O)[nH]c4ccc(Cl)cc34)c3ccccc3n2)cc1", "SK-MEL-5 melanoma", "upper bin"),
    ("O=C1CC(c2ccc(I)cc2)OC2C=Cc3ccccc3C12 (configuration not stated)", "SK-MEL-5 melanoma", "upper bin"),
    ("O=C(N/N=C/c1ccc(-c2cccc([N+](=O)[O-])c2)s1)c1[nH]c2ccc(Br)cc2c1-c1ccccc1", "SK-MEL-5 melanoma", "upper bin"),
    ("O=C(c1ccc(Cl)cc1)C1[C@H](c2ccccc2Cl)[C@@H](c2ccccc2)NC12C(=O)Nc1ccccc12 (some centres not stated)", "SK-MEL-5 melanoma", "lower bin"),
    ("CC(C)CN1C(=O)/C(=C\\C(=O)c2cc3ccccc3oc2=O)c2ccccc21", "SK-MEL-5 melanoma", "upper bin"),
    ("CC1=C(C)C(=O)C(N2CCSCC2)=CC1=O", "SK-MEL-5 melanoma", "upper bin"),
    ("OC(c1ccccc1)(c1ccccc1)C1CCN(c2ccc3nnc(Cl)n3n2)CC1", "SK-MEL-5 melanoma", "lower bin"),
    ("O=C(N/N=C/c1c[nH]c2ccccc12)Nc1ccccc1Cl", "SK-MEL-5 melanoma", "lower bin"),
    ("Oc1ccc(Cl)c(Nc2nc(SCCN3CCOCC3)nc3c2cnn3CC(Cl)c2ccc(Br)cc2)c1 (configuration not stated)", "SK-MEL-5 melanoma", "lower bin"),
    ("COc1ccc(N=Nc2c(N)nn3c(N)c(C#N)c(-c4ccc(C)cc4)nc23)cc1", "SK-MEL-5 melanoma", "middle bin"),
    ("COc1c(B(O)O)cc(F)cc1-c1nc2c(F)cc3[nH]ncc3c2c2c1CCCC2", "SK-MEL-5 melanoma", "lower bin"),
    ("N#CC1=C(c2ccco2)Nc2c(c(-c3ccccc3)nn2-c2ccccc2)C12C(=O)Nc1ccc(Br)cc12 (configuration not stated)", "SK-MEL-5 melanoma", "middle bin"),
    ("O=C(CSc1nnc(-c2ccc(-c3nc4ccccc4[nH]3)cc2)o1)Nc1ccc(Br)cc1", "SK-MEL-5 melanoma", "middle bin"),
    ("COc1ccc(C(=O)c2cc(C(C)=O)c3c(C)cc(C)cn23)cc1", "SK-MEL-5 melanoma", "middle bin"),
    ("Cc1nn(-c2ccccc2)c2nc(C)n(CC(=O)N/N=C/c3cccc([N+](=O)[O-])c3)c(=O)c12", "SK-MEL-5 melanoma", "upper bin"),
    ("COc1cncc(-c2ccc3ncnc(N4CCc5ccc(Cl)cc54)c3c2)c1", "SK-MEL-5 melanoma", "lower bin"),
    ("O=C(c1ccc(O)cc1)C1[C@H](c2ccccc2Br)[C@@H](c2ccccc2)NC12C(=O)Nc1ccccc12 (some centres not stated)", "SK-MEL-5 melanoma", "middle bin"),
    ("NS(=O)(=O)c1ccc(Nc2nc(N/N=C/c3cc(Br)c(O)c(Br)c3)nc(Nc3ccccc3)n2)cc1", "SK-MEL-5 melanoma", "lower bin"),
    ("COc1ccc(C(=O)c2c(N)c(C#N)cn2-c2ccc([N+](=O)[O-])cc2)cc1", "SK-MEL-5 melanoma", "upper bin"),
]
